Tested on: zebrafish larvae, 120 hpf
run_description: Larval photomotor response (LPR) assay after vial exposure
Format: in vivo, Danio rerio
test_settings: LPR, period light, round 1, conc 25
# fold_change per record follows
# print the numeric value only

Below, each entry is followed by its recorded fold_change result.
cpd_smiles	experimental_value
CCc1ccc2ccccc2c1	-0.2321
CCc1cccc2ccccc12	0.4136
Cc1ccc2cc(C)ccc2c1	-0.2222

Consider the record given below.
# input I'm curious: which fold_change was measured for `Cc1cccc2c(C)cccc12` tested on zebrafish larvae, 120 hpf?
# output 0.799

---

Test system: zebrafish larvae, 120 hpf
run_description: Larval photomotor response (LPR) assay after vial exposure
Assay type: in vivo, Danio rerio
test_settings: LPR, period dark, round 2, conc 16
Measured fold_change values are reported for all entries that follow.
Please respond with just the number, no unit label.

Solved entries:
cpd_smiles	fold_change
Cc1ccc(C)c2c(C)cccc12	-0.1932
Cc1cc2cccc(C)c2cc1C	-0.296
Cc1cc(C)c2c(C)cccc2c1	-0.104

Proceed to the following item.
# input Suppose we examine the compound `CC(C)c1ccc2ccccc2c1` ; what fold_change value has been reported?
# output -1.368

---

System: zebrafish larvae, 120 hpf
run_description: Larval photomotor response (LPR) assay after vial exposure
Assay type: in vivo, Danio rerio
test_settings: LPR, period dark, round 1, conc 50
The threshold is inclusive: fold_change of exactly -0.3 counts as Satisfied; values below receive Not satisfied.

Worked examples, 3 compounds total:
cpd_smiles	label_class
CC(C)c1ccc2cc(C(C)C)ccc2c1	Satisfied
Cc1cc2ccccc2cc1C	Not satisfied
Cc1cccc2ccccc12	Not satisfied

# input Does the compound `Cc1ccc2ccccc2c1` have recorded fold_change that is -0.3 or more?
# output Satisfied

# input // repeat for `Cc1ccc2ccc(C)cc2c1` and report
# output Not satisfied

# input Entry `Cc1ccc2c(C)c(C)ccc2c1C` please
# output Not satisfied

---

Test system: zebrafish larvae, 120 hpf
run_description: Larval photomotor response (LPR) assay after vial exposure
Type: in vivo, Danio rerio
test_settings: LPR, period light, round 1, conc 3.125
Rule: fold_change of -0.4 or more gives True; anything lower gives False.

molecule	label_class
Cc1ccc2cccc(C)c2c1 [1,7-dimethylnaphthalene]	False
Cc1cc2ccccc2cc1C [2,3-dimethylnaphthalene]	True
Cc1ccc(C)c2ccccc12 [1,4-dimethylnaphthalene]	True
CC(C)c1ccc2cc(C(C)C)ccc2c1 [2,6-diisopropylnaphthalene]	False
Cc1ccc2ccccc2c1 [2-methylnaphthalene]	True

Now look at this entry.
# input Is the recorded value of fold_change equal to or greater than -0.4 for this molecule? CCCCc1ccc2ccccc2c1 [2-butylnaphthalene]
# output True

---

This listing pairs compounds with measured concentration at 48 hpf, 20 μM.
run_description: Body burden measurement (GC-MS/MS) and concentration uptake ratio, vial exposure
Assay type: in vivo, Danio rerio
test_settings: zebrafish (Danio rerio), whole embryos (32 pooled, ethyl acetate extract), other: waterborne exposure of embryos in sealed vials, 20 μM exposure, 48 hpf, 32 pooled embryos, 0.5 mL extract, single replicates; read-out: measured concentration in embryo extract
Number in ng/mL, nothing else.

Worked cases, concentration at 48 hpf, 20 μM given:
cpd_smiles	concentration at 48 hpf, 20 μM, ng/mL
Cc1ccc2ccc(C)cc2c1	8890
Cc1ccc2cccc(C)c2c1	11300
c1ccc2ccccc2c1	75.6

Turning now to a further record.
# input # query: concentration at 48 hpf, 20 μM of entry `Cc1cccc2c(C)cccc12`
# output 9160
